assay: recombinant UMI read abundance after kanamycin selection (control-corrected) (log10(CPM+1)); higher = more efficient recombination; extreme values may be limits of the assay; sequences stand for … in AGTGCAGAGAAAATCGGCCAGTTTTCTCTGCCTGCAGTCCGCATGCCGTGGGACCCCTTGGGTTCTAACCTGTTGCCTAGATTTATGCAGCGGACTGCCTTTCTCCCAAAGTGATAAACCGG…AGGTTGGTTTCACT; site = the 11-nt donor;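 further: IS621 bridge recombinase in Escherichia coli cells against a fixed T5 target plasmid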
readout: recombinant UMI read abundance (log10)
Answer with a number only.

Example cases with answers are listed next.
{"sequenceInput": "CGTACACCATGGACCGGTTTTCCCGGTAATCCGTATTTGAC (site TGTACACCTGT)", "recombinant UMI read abundance (log10)": 0}
{"sequenceInput": "TCCAATTCATGGACCGGTTTTCCCGGTAATCCGTATTTGCC (site TCCAATTCTGC)", "recombinant UMI read abundance (log10)": 0}
{"sequenceInput": "CTTTTCTCATGGACCGGTTTTCCCGGTAATCCGTATTTGTA (site CTTTTCTCTTA)", "recombinant UMI read abundance (log10)": 0.0916}
{"sequenceInput": "TAGCTAGCATGGACCGGTTTTCCCGGTAATCCGTATTTGCA (site TAGCTAGCTTC)", "recombinant UMI read abundance (log10)": 0.00756}

q: What does the data say about its recombinant UMI read abundance (log10)? Entry: GTTGTTCCATGGACCGGTTTTCCCGGTAATCCGTATTTGGA (site GTTGTTCCTAC)
a: 0

q: What does the data say about its recombinant UMI read abundance (log10)? Entry: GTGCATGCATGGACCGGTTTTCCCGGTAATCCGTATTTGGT (site GTGCAGGCTAC)
a: 0.384

q: What does the data say about its recombinant UMI read abundance (log10)? Entry: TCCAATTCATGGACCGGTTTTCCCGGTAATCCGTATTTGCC (site TTCAATTCTGG)
a: 0
